I'd appreciate it if you could supply Percent Control values for the items below.
- System: DRAK2
- Construct: gene STK17B
- details: Compound Concentration (nM):1000;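 further: KINOMEscan scanMAX binding as percent activity remaining versus control; lower means stronger binding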
Give bare numbers, in %.

For orientation, consider the following solved cases.
COc1cc(C)c(N(C)C(=O)CN(C)C)cc1Nc1nc(Nc2cccc(F)c2C(N)=O)c2cc[nH]c2n1
83
CC1=C(C(=O)Nc2ccc3[nH]ncc3c2)C(c2ccc(Cl)c(Cl)c2)CC(=O)N1 (stereo not shown) [GSK299115A]
84

Each of the following entries comes with a recorded value; kindly state Percent Control for each.
1. COc1ccc(COc2ccc(Cc3cnc(N)nc3N)cc2OC)cc1 [GW632580X]
2. Cc1cc(O)cc(C)c1/C=C/c1cncc(C(N)=O)c1 [GW435821X]
3. CN(C)CCNC(=O)Nc1ccc(N(C)c2ccnc(Nc3ccc(CS(C)(=O)=O)cc3)n2)cc1.Cl [GW830900A]

1: 100; 2: 100; 3: 100

Dear colleague, could you send me Percent Control for each of the items below? Thanks.
1. Cl.O=C(Nc1ccc(Oc2ccc3[nH]c(NC(=O)c4ccco4)nc3c2)cc1)Nc1cc(C(F)(F)F)ccc1F [GW683134A]
2. CCS(=O)(=O)c1ccc(OC)c(Nc2ncc(-c3cccc(OC)c3)o2)c1 [GW580509X]
3. COc1ccc2cc(-c3c(-c4ccncc4)nc(-c4ccc(S(C)(=O)=O)cc4C)n3C)ccc2c1
4. CCS(=O)(=O)c1ccc(OC)c(Nc2ncc(-c3cccc(F)c3)o2)c1 [GW621970X]
5. COc1cc(N2CCN(C(C)C)CC2)ccc1Nc1nc(Nc2ccc(F)cc2C(=O)NC[C@@H](O)CO)c2cc[nH]c2n1 [GSK1392956A]
6. Cl.c1ccc(Cc2nc3ccc(Nc4ncnc5ccccc45)cc3[nH]2)cc1 [GR269666A]
7. CCc1ccc(Oc2nccc(-c3c(-c4ccc(F)cc4)ncn3C3CCNCC3)n2)cc1

100
100
79
100
93
100
55

Okay, here is my list. What is Percent Control for each of these?
1. Cl.O=C(Nc1ccc(Oc2ccc3[nH]c(NC(=O)c4ccccc4)nc3c2)cc1)Nc1cc(C(F)(F)F)ccc1F [GW709042A]
2. CC1=C(C(=O)Nc2ccc3[nH]ncc3c2)C(c2ccc3ccccc3c2)CC(=O)N1 (stereo not shown) [GSK270822A]
3. COc1cccc(-c2c[nH]c3c(N/N=C/c4ccncc4)ncnc23)c1 [GW814408X]
4. COc1cc(C=NNc2ncnc3c2cnn3-c2ccccc2)ccc1O [GW513184X]

1. 100
2. 84
3. 32
4. 71

====

- System: PAK7
- details: Compound Concentration (nM):1000
Hi there, I'd appreciate the recorded Percent Control for every entry that follows.
Answers are plain numbers, in %.

Examples with answers:
CN(C)CCNC(=O)Nc1ccc(N(C)c2ccnc(Nc3ccc(CS(C)(=O)=O)cc3)n2)cc1.Cl [GW830900A]
71
COc1cccc(-c2c[nH]c3c(N/N=C/c4ccncc4)ncnc23)c1 [GW814408X]
100
COc1ccc2[nH]c3c4[nH]c5ccc(OC)cc5c4c4c(c3c2c1)C(=O)NC4=O [GW296115X]
91

Please examine the following record next.
Quote PAK7 Percent Control for entry O=C(Nc1n[nH]c2nc(-c3ccc(O)cc3)c(Br)cc12)C1CC1 .
100
